# method_description: inhibitors of TNFa-induced NFkB p65 translocation, primary screen, imaging, HUVEC, MLSMR starter and 10KST1 sets (AID 438);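 note: compound added about 3h40 before a 20 min TNFalpha stimulation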
# measurement_parameters: HUVEC TNFa-induced p65 nuclear translocation; measured here: nuclei count (cytotoxicity indicator), at 2.08 µM
Rule: Criterion met for cell count not less than 600, Criterion not met for anything less.

compound	classification
O=S(=O)(NCc1cccnc1)c1cccc2nsnc12	Criterion met
COC(=O)c1c(NC(=O)c2nn(C)cc2Cl)sc2c1CCCC2	Criterion met
Cc1nc2ccccc2cc1O	Criterion not met
CC(=O)Nc1n[nH]c(S(=O)(=O)Cc2ccc(Cl)cc2Cl)n1	Criterion not met
N#CC1=C(N)OC2=C(C(=O)CCC2)C1CCc1ccccc1 (configuration not stated)	Criterion met
C=COC(=O)CSc1nc(-c2cccs2)ccc1C#N	Criterion met
CCN(CC)CC#CCOC(=O)C(O)(c1ccccc1)C1CCCCC1 (configuration not stated)	Criterion not met
O=CN1CCN(C(=O)CN2C(=O)c3ccccc3C2=O)CC1	Criterion not met
Oc1c(Cl)cc(Cl)cc1CNc1ccc(Br)cn1	Criterion not met
